Attribution: patent US9149475B2

- System: Human primary T cells
- method: IL-2 ELISA, human primary T cell, anti-CD3+CD28+ (whole cell assay)
- Assay type: cell-based
- particulars: Homo sapiens, T-cell, 24 h, human primary T cells stimulated with anti-CD3 + anti-CD28, 24 hours
readout name: IC50

1) CC1(C)CC(Nc2nc(Nc3ccc(OCCN4CCNC4=O)c(OC(F)F)c3)ncc2F)CC(C)(C)N1 :: > 1000 nM
2) Cc1nnnn1-c1cc(Nc2ncc(F)c(NC3CC(C)(C)N(C)C(C)(C)C3)n2)ccc1OC1CCN(C(C)C)CC1 :: 250 to 500 nM
3) CC1(C)CC(Nc2nc(Nc3ccc(Oc4cccnc4)c(C(F)(F)F)c3)ncc2F)CC(C)(C)N1 :: > 1000 nM
4) CN1C(C)(C)CC(Nc2nc(Nc3ccc(OC4CCN(CCOCc5ccccc5)CC4)c(F)c3)ncc2F)CC1(C)C :: 500 to 1000 nM
5) Cc1nnnn1-c1cc(Nc2ncc(F)c(NC3CC(C)(C)N(C)C(C)(C)C3)n2)cnc1OC(C)C :: < 250 nM
6) CSc1nnnn1-c1cccc(Nc2ncc(F)c(NC3CC(C)N(C4CC4)C(C)C3)n2)c1 (stereo not drawn) :: 250 to 500 nM
7) Cc1nnnn1-c1cc(Nc2ncc(F)c(NC3CC(C)(C)NC(C)(C)C3)n2)ccc1OC1CCN(C(C)C)CC1 :: > 1000 nM
8) CN1C(C)(C)CC(Nc2nc(Nc3cc(C4CC4)cc(-n4cnnn4)c3)ncc2F)CC1(C)C :: < 250 nM
9) CC(C)Oc1ccc(Nc2ncc(F)c(NC3CC(C)(C)NC(C)(C)C3)n2)cc1N(C)C(C)C :: > 1000 nM
10) CN1C(C)(C)CC(Nc2nc(Nc3ccc(OCCN4CCOCC4)c(C(F)(F)F)c3)ncc2F)CC1(C)C :: 250 to 500 nM
11) Cn1nnnc1-c1cc(F)cc(Nc2ncc(F)c(NC3CC(C)(C)NC(C)(C)C3)n2)c1 :: 500 to 1000 nM
12) CC(=O)N1CCCC(Oc2c(F)cc(Nc3ncc(F)c(NC4CC(C)(C)N(C)C(C)(C)C4)n3)cc2F)CC1 (stereo not drawn) :: 500 to 1000 nM
13) CC1(C)CC(Nc2nc(Nc3ccc(-c4cccnc4)c(OC(F)F)c3)ncc2F)CC(C)(C)N1 :: 250 to 500 nM
14) Cc1ccc(C)n1-c1cc(Nc2ncc(F)c(NC3CC(C)(C)NC(C)(C)C3)n2)cnc1OC(C)C :: 500 to 1000 nM
15) CC1(C)CC(Nc2nc(Nc3cc(OCCn4ccnn4)cc(C(F)(F)F)c3)ncc2F)CC(C)(C)N1 :: 500 to 1000 nM

###

- System: Human primary T cells
- method: IL-2 ELISA, human primary T cell, anti-CD3+CD28+ (whole cell assay)
- Type: cell-based
- particulars: Homo sapiens, T-cell, 24 h, human primary T cells stimulated with anti-CD3 + anti-CD28, 24 hours
pIC50: −log10 of the molar value.
readout name: pIC50

1. Cc1ccc(C)n1-c1cc(Nc2ncc(F)c(NC3CC(C)(C)NC(C)(C)C3)n2)ccc1OC(C)C [Compound I-16] :: < 6.00
2. CC1(C)CC(Nc2nc(Nc3ccc(OC(C)(C)CN4CCOCC4)c(OC(F)F)c3)ncc2F)CC(C)(C)N1 [Compound I-122] :: < 6.00
3. CN1C(C)(C)CC(Nc2nc(Nc3ccc(OCCN4CCCC4=O)c(C(F)(F)F)c3)ncc2F)CC1(C)C [Compound I-56] :: 6.00 to 6.30
4. CCNC(=O)N1CCC(Oc2ccc(Nc3ncc(F)c(NC4CC(C)(C)NC(C)(C)C4)n3)cc2F)CC1 [III-17] :: < 6.00
5. CCOc1ncc(Nc2ncc(F)c(NC3CC(C)(C)NC(C)(C)C3)n2)cc1OC(F)F [Compound I-118] :: 6.30 to 6.60
6. CC1(C)CC(Nc2nc(Nc3ccc(OCCN4CCCC4=O)c(OC(F)F)c3)ncc2F)CC(C)(C)N1 [Compound I-30] :: 6.00 to 6.30
7. CC(C)n1nnnc1-c1cccc(Nc2ncc(F)c(NC3CC(C)(C)N(C)C(C)(C)C3)n2)c1 [III-70] :: > 6.60

###

- System: Human primary T cells
- method: IL-2 ELISA, human primary T cell, anti-CD3+CD28+ (whole cell assay)
- Assay type: cell-based
- particulars: Homo sapiens, T-cell, 24 h, human primary T cells stimulated with anti-CD3 + anti-CD28, 24 hours
pIC50: −log10 of the molar value.
readout name: pIC50

1. CC1(C)CC(Nc2nc(Nc3ccc(OCCN4CCCC4=O)c(C(F)(F)F)c3)ncc2F)CC(C)(C)N1 :: < 6.00
2. CN1C(C)(C)CC(Nc2nc(Nc3ccc(OCCn4cncn4)c(OC(F)F)c3)ncc2F)CC1(C)C :: > 6.60
3. CC1(C)CC(Nc2nc(Nc3ccc(OC4CCN(CCO)CC4)c(OC(F)F)c3)ncc2F)CC(C)(C)N1 :: 6.00 to 6.30
4. CN1C(C)(C)CC(Nc2nc(Nc3cccc(-c4nnnn4CCF)c3)ncc2F)CC1(C)C :: 6.30 to 6.60
5. CC(C)N1CCC(Oc2ccc(Nc3ncc(F)c(NC4CC(C)(C)NC(C)(C)C4)n3)cc2OC(F)F)CC1 :: > 6.60
6. CC1(C)CC(Nc2nc(Nc3ccc(OCCCN4CCOCC4)c(OC(F)F)c3)ncc2F)CC(C)(C)N1CC(F)(F)F :: < 6.00
7. CCNC(=O)N1CCC(Oc2ccc(Nc3ncc(F)c(NC4CC(C)(C)NC(C)(C)C4)n3)cc2OC(F)F)CC1 :: < 6.00
8. CC1(C)CC(Nc2nc(Nc3cc(F)c(OC(C)(C)CCN4CCCC4)c(F)c3)ncc2F)CC(C)(C)N1 :: < 6.00
9. CN1C(C)(C)CC(Nc2nc(Nc3cc(-c4nnnn4C)cc(C(F)(F)F)c3)ncc2F)CC1(C)C :: > 6.60
10. CN1C(C)(C)CC(Nc2nc(Nc3ccc4c(c3)OCC(C(=O)N3CCOCC3)O4)ncc2F)CC1(C)C (stereo not shown) :: < 6.00
11. CC1(C)CC(Nc2nc(Nc3cc(F)cc(OCCn4ccnn4)c3)ncc2C#N)CC(C)(C)N1 :: < 6.00
12. CC1(C)CC(Nc2nc(Nc3ccc(OC4CCN(CC(N)=O)CC4)c(F)c3)ncc2F)CC(C)(C)N1 :: < 6.00
13. Cc1ccc(C)n1-c1cc(Nc2ncc(F)c(NC3CC(C)(C)N(C)C(C)(C)C3)n2)ccc1OC(C)C :: 6.00 to 6.30

###

List of IC50 values.
- Test system: Human primary T cells
- method: IL-2 ELISA, human primary T cell, anti-CD3+CD28+ (whole cell assay)
- Assay type: cell-based
- particulars: Homo sapiens, T-cell, 24 h, human primary T cells stimulated with anti-CD3 + anti-CD28, 24 hours
readout name: IC50

1. CN1C(C)(C)CC(Nc2nc(Nc3ccc(OC4CCN(S(C)(=O)=O)CC4)c(OC(F)F)c3)ncc2F)CC1(C)C :: 250 to 500 nM
2. CC1(C)CC(Nc2nc(Nc3ccc(OC4CCN(CCO)CC4)c(F)c3)ncc2F)CC(C)(C)N1 :: > 1000 nM
3. CN1C(C)(C)CC(Nc2nc(Nc3cc(F)cc(OCCCn4cccc4)c3)ncc2F)CC1(C)C :: 500 to 1000 nM
4. CC1(C)CC(Nc2nc(Nc3ccc(OCCN4CCCC4)c(OC(F)F)c3)ncc2F)CC(C)(C)N1 :: 500 to 1000 nM

###

- Tested on: Human primary T cells
- method: IL-2 ELISA, human primary T cell, anti-CD3+CD28+ (whole cell assay)
- Format: cell-based
- particulars: Homo sapiens, T-cell, 24 h, human primary T cells stimulated with anti-CD3 + anti-CD28, 24 hours
pIC50: −log10 of the molar value.
List of pIC50 values.
readout name: pIC50

1) CN1C(C)(C)CC(Nc2nc(Nc3ccc(Cl)c(-c4nnnn4C)c3)ncc2F)CC1(C)C :: > 6.60
2) CC(C)Oc1ncc(Nc2ncc(F)c(NC3CC(C)(C)N(C)C(C)(C)C3)n2)cc1-c1nnnn1C :: > 6.60
3) Cc1ccc(Nc2ncc(F)c(NC3CC(C)N(C4CC4)C(C)C3)n2)cc1-n1cnnn1 (stereo not shown) :: 6.30 to 6.60
4) COCCn1nnnc1-c1cc(Nc2ncc(F)c(NC3CC(C)(C)NC(C)(C)C3)n2)ccc1F :: < 6.00

###

- Test system: Human primary T cells
- method: IL-2 ELISA, human primary T cell, anti-CD3+CD28+ (whole cell assay)
- Type: cell-based
- particulars: Homo sapiens, T-cell, 24 h, human primary T cells stimulated with anti-CD3 + anti-CD28, 24 hours
pIC50: −log10 of the molar value.
readout name: pIC50

1. CN1C(C)(C)CC(Nc2nc(Nc3cc(F)cc(OCCn4cncn4)c3)ncc2F)CC1(C)C :: 6.00 to 6.30
2. Cc1ccc(C)n1-c1cc(Nc2ncc(F)c(NC3CC(C)(C)N(C)C(C)(C)C3)n2)ccc1OC(F)F :: 6.30 to 6.60
3. CN1C(C)(C)CC(Nc2nc(Nc3cccc(-n4ccc(C(F)(F)F)n4)c3)ncc2F)CC1(C)C :: < 6.00
4. CC1(C)CC(Nc2nc(Nc3ccc(Oc4cccnc4)c(OC(F)F)c3)ncc2F)CC(C)(C)N1 :: 6.30 to 6.60
5. CN1C(C)(C)CC(Nc2nc(Nc3cc(F)cc(OCCN4CCCC4=O)c3)ncc2F)CC1(C)C :: 6.00 to 6.30
6. CC1(C)CC(Nc2nc(Nc3ccc(OC(C)(C)CN4CCCC4)c(OC(F)F)c3)ncc2F)CC(C)(C)N1 :: 6.00 to 6.30
7. CC(C)N1CC[C@H](Oc2ccc(Nc3ncc(F)c(NC4CC(C)(C)NC(C)(C)C4)n3)cc2OC(F)F)C1 :: 6.30 to 6.60
8. Cn1nnnc1-c1cc(Nc2ncc(F)c(NC3CC(C)(C)NC(C)(C)C3)n2)cc(F)c1F :: 6.30 to 6.60
9. CC1(C)CC(Nc2nc(Nc3ccc(OC4CCS(=O)(=O)CC4)c(OC(F)F)c3)ncc2F)CC(C)(C)N1 :: < 6.00
10. CC1(C)CC(Nc2nc(Nc3ccc(OC4CCN(CC(N)=O)CC4)c(OC(F)F)c3)ncc2F)CC(C)(C)N1 :: < 6.00
11. CN1C(C)(C)CC(Nc2nc(Nc3cccc(-n4cccn4)c3)ncc2F)CC1(C)C :: 6.00 to 6.30
12. CN1C(C)(C)CC(Nc2nc(Nc3cc(F)cc(OCCn4ccnn4)c3)ncc2F)CC1(C)C :: 6.00 to 6.30
13. CN1C(C)(C)CC(Nc2nc(Nc3ccc(OC4CCN(CC(F)(F)F)CC4)c(OC(F)F)c3)ncc2F)CC1(C)C :: 6.30 to 6.60
14. CC1(C)CC(Nc2nc(Nc3ccc(OC4CCOCC4)c(OC(F)F)c3)ncc2F)CC(C)(C)N1 :: 6.30 to 6.60
15. Cc1nnnn1-c1cc(Nc2ncc(F)c(NC3CC(C)(C)NC(C)(C)C3)n2)ccc1F :: 6.30 to 6.60
16. Cc1ccn(-c2cccc(Nc3ncc(F)c(NC4CC(C)(C)NC(C)(C)C4)n3)c2)n1 :: < 6.00
17. CC1(C)CC(Nc2nc(Nc3cc(F)c(OC4CCN(S(C)(=O)=O)CC4)c(F)c3)ncc2F)CC(C)(C)N1 :: < 6.00
18. COc1cc(NC(C)=O)cc(Nc2ncc(F)c(NC3CC(C)(C)N(C)C(C)(C)C3)n2)c1 :: 6.00 to 6.30
19. CC1(C)CC(Nc2nc(Nc3cccc(-n4cccn4)c3)ncc2F)CC(C)(C)N1 :: < 6.00
20. CC1(C)CC(Nc2nc(Nc3ccc(OC4CCCN(S(C)(=O)=O)CC4)c(OC(F)F)c3)ncc2F)CC(C)(C)N1 (stereo not drawn) :: 6.00 to 6.30
21. CC(C)N1CCC(Oc2ccc(Nc3ncc(F)c(NC4CC(C)(C)NC(C)(C)C4)n3)cc2C#N)CC1 :: > 6.60
22. CN1C(C)(C)CC(Nc2nc(Nc3ccc(OCCN4CCCC4=O)c(OC(F)F)c3)ncc2F)CC1(C)C :: > 6.60
23. CCNC(=O)N1CCC(Oc2ccc(Nc3ncc(F)c(NC4CC(C)(C)N(C)C(C)(C)C4)n3)cc2F)CC1 :: < 6.00
24. CC1(C)CC(Nc2nc(Nc3ccc(OCCN4CCOCC4)c(C(F)(F)F)c3)ncc2F)CC(C)(C)N1 :: 6.00 to 6.30
25. CC(C)N1CC[C@@H](Oc2ccc(Nc3ncc(F)c(NC4CC(C)(C)N(C)C(C)(C)C4)n3)cc2OC(F)F)C1 :: > 6.60
26. CC(C)N1CC(Oc2ccc(Nc3ncc(F)c(NC4CC(C)(C)NC(C)(C)C4)n3)cc2OC(F)F)C1 :: 6.00 to 6.30
27. CC(C)Nc1cc(Nc2ncc(F)c(NC3CC(C)(C)N(C)C(C)(C)C3)n2)ccc1OC(C)C :: < 6.00
28. CCNC(=O)N1CCCC(Oc2c(F)cc(Nc3ncc(F)c(NC4CC(C)(C)NC(C)(C)C4)n3)cc2F)CC1 (stereo not drawn) :: < 6.00
29. Cc1ccc(C)n1-c1cc(Nc2ncc(F)c(NC3CC(C)(C)NC(C)(C)C3)n2)ccc1OC(F)F :: 6.00 to 6.30
30. CN1C(C)(C)CC(Nc2nc(Nc3cc(OCCCn4cccc4)cc(C(F)(F)F)c3)ncc2F)CC1(C)C :: 6.00 to 6.30
